EXPERIMENTAL_TARGET: T1, c-Kit expressed on the cell surface of M-07e cells (human, UniProt P10721 26-976)
T1 construct: whole, on cells; also called cell surface expressed c-Kit; CD117
T1 sequence (P10721 26-976): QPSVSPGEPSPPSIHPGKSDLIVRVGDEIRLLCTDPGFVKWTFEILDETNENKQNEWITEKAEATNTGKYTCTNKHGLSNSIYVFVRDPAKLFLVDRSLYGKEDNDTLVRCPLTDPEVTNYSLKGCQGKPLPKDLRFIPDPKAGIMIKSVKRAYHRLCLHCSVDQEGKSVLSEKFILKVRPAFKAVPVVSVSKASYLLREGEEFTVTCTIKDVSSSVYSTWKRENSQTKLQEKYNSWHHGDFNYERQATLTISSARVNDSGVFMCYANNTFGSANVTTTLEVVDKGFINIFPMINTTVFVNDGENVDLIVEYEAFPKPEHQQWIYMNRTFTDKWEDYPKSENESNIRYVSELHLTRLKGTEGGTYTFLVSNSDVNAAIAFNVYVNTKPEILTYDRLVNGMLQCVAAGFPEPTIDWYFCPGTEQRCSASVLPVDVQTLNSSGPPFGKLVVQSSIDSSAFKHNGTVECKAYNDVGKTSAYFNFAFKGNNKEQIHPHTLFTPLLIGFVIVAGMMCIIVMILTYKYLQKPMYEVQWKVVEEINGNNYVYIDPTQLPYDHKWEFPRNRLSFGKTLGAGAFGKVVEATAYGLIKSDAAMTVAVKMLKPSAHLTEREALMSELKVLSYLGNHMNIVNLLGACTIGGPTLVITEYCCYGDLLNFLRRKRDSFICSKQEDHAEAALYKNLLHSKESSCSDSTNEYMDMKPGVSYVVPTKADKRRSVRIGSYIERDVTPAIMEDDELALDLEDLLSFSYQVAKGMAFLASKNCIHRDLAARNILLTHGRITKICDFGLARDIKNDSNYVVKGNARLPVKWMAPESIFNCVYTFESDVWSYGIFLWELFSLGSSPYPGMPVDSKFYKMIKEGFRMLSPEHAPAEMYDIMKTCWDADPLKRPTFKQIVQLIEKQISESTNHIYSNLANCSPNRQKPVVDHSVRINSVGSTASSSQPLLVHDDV
ASSAY_NOTES: flow cytometry on M-07e cells
Examples of binders with documented Percent Positive for c-Kit on M-07e cells follow.
EXPERIMENTAL_ENDPOINT: Percent Positive for c-Kit on M-07e cells (%)

BINDER	MEASURED_NUMBER
hSR1-4 (antibody, human IgG1, kappa, V domains shown, also called humanized SR1-4; hSR1-H3b / hSR1-L2) VH: QVQLVQSGAEVKKPGASVKMSCKASGYTFTSYNMHWVRQAPGQGLEWIGVIYSGNGDTSYAQKFQGRATLTADKSTSTAYMELSSLRSEDTAVYYCARERDTRFGNWGQGTLVTVSS VL: DIQLTQSPSSLSASVGDRATITCRASESVDIYGNSFMHWYQQKPGKAPKLLIYLASNLESGVPSRFSGSGSGTDFTLTISSVQPEDFATYYCQQNNEDPYTFGQGTKLEIKR	99.8
hSR1-5 (antibody, human IgG1, kappa, V domains shown, also called humanized SR1-5; hSR1-H2 / hSR1-L2r) VH: QVQLVQSGAEVKKPGASVKVSCKASGYTFTSYNMHWVRQAPGQGLEWMGVIYSGNGDTSYAQKFQGRVTMTADTSTSTAYMELSSLRSEDTAVYYCARERDTRFGNWGQGTLVTVSS VL: DIQLTQSPSSLSASVGDRATITCRASESVDIYGNSFMHWYQQKPGKAPKLLIYLASNLESGVPSRFSGSGSRTDFTLTISSVQPEDFATYYCQQNNEDPYTFGQGTKLEIKR	99.5
hSR1-1 (antibody, human IgG1, kappa, V domains shown, Humanized anti-c-Kit antibody; also called humanized SR1-1; hSR1-H2 / hSR1-L2) VH: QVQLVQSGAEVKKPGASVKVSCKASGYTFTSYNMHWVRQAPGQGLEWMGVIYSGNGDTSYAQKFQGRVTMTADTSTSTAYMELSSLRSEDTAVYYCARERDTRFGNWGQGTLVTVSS VL: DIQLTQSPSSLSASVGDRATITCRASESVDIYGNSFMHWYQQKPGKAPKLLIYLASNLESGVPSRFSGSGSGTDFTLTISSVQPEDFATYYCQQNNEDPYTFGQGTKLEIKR	99.5

The reported measurements were obtained from patent US20260070975A1.
